Test system: NCI-H322M lung
method-description: NCI-60 one-dose screen, 48 h (100 = growth as untreated, 0 = no growth, -100 = all killed)
measurement-parameters: 10 µM unless noted
The panel holds about 83,000 compounds, 20% with a hit somewhere; the sample as a whole holds those more often.
quantity-kind: growth (%)
Numeric answer only, unit % assumed.

Would you please look over these solved cases?
# input Reported growth, compound `COc1cc2c3c(n(CCCNC4CCCCC4)c(=O)c2cc1OC)-c1cc2c(cc1C3=O)OCO2` : ____
# output -80.3

# input Reported growth, compound `N/C(=N\OC(=O)CSc1nc2ccccc2s1)c1ccc2ccccc2c1` : ____
# output 101

# input Reported growth, compound `COC1=C(c2ccccc2)C(=O)C(OC)=C(c2ccccc2)C1=O` : ____
# output 106

# input Reported growth, compound `CN(c1ccc(F)cc1)S(=O)(=O)c1ccc(-c2cnc(C3CC3)o2)cc1` : ____
# output 45.6

# input Reported growth, compound C/C(=C(/C)C1CC1CCN(C(=O)c1ccccn1)S(=O)(=O)c1ccc(C)cc1)C1CCCCC1 (centres undefined) : ____
# output 105

---
# input Reported growth, compound `Oc1ccc(CSc2nnc(-c3ccc(Cl)cc3)o2)c2cccnc12` : ____
# output 26.1

# input Reported growth, compound `O=C(O)c1ccc(-n2cc(CNc3ccc(F)cc3)c(-c3ccc(C(F)(F)F)cc3)n2)cc1` : ____
# output 89.9

# input Reported growth, compound `O=C(NCCCCCCNC(=O)c1c2c(nc3ccccc13)-c1cccnc1SC2)c1c2c(nc3ccccc13)-c1cccnc1SC2` : ____
# output 71.9

# input Reported growth, compound `Cn1cc(-c2nn3cc(-c4ccncc4)nc3s2)c2cc(Cl)ccc21` : ____
# output 78.3
